System: 786-0
PROTOCOL: NCI tumour cell line growth inhibition, 48 h
The source made the active and inactive calls. No stated cut-off is given here; in the data, active = GI50 up to about 1.1 µM and inactive = higher.
Below: a set of entries, each annotated with reported GI50.

Example compounds with recorded GI50:
[[record]]
compound = "CCOC(=O)c1ccc(/N=c2/[nH]c3ccccc3s/c2=N/c2ccc(C(=O)OCC)cc2)cc1"
attribute_measured = "GI50"
measured_value = "25.4 µM (inactive)"

[[record]]
compound = "CCOC(NC(=O)CC)(C(F)(F)F)C(F)(F)F"
attribute_measured = "GI50"
measured_value = "> 100 µM (inactive)"


What reported GI50 corresponds to "O=C1/C(=C2/CCCN2)C(c2ccc[nH]2)=NN1c1ccccc1" on 786-0?
> 100 µM (inactive)

Follow-up entry: "N#Cc1c(-c2ccc(Cl)cc2)c2c([nH]c1=O)-c1ccccc1SC2"
39.8 µM (inactive)

Follow-up entry: "N#C/C(=C\c1ccccc1O)C(N)=O"
> 100 µM (inactive)

Follow-up entry: COc1cccc(NC(=O)CC(=O)N2N=C(N(CCC#N)c3ccccc3C)CC2c2ccccc2)c1 (stereo not given)
> 100 µM (inactive)

Follow-up entry: O=C1c2ccccc2C(=O)c2c1ccc1c2N=C(c2ccc(Br)cc2)CC(c2cccc3ccccc23)N1 (stereo not given)
> 100 µM (inactive)

Follow-up entry: "O=C(O)CNc1c2ccccc2[n+]([O-])c2ccccc12"
> 100 µM (inactive)

Follow-up entry: "Cc1c(C(=O)C/C(=N/NC(=O)CC#N)C(N)=O)[n+]([O-])c2ccccc2[n+]1[O-]"
> 100 µM (inactive)

Follow-up entry: COC(=O)C(Cc1c[nH]c2ccccc12)NP(=O)(O)OCC1OC(n2cc(Br)c(=O)[nH]c2=O)CC1O (stereo not given)
> 100 µM (inactive)

###

Tested on: SK-OV-3
PROTOCOL: NCI tumour cell line growth inhibition, 48 h
Calls of active or inactive are those of the source. Rule as the data show it: active = GI50 up to about 1.1 µM and inactive = higher.
Below: a set of entries, each annotated with reported GI50.

Example molecules with recorded GI50:
[[record]]
molecule = "Cc1ncc(CI)c(CI)c1O"
measured_value = "> 100 µM (inactive)"

[[record]]
molecule = "[N-]=[N+]=Nc1ccc2c(c1)Sc1ccccc1N2CCCCN1CCN(Cc2ccc(C(=O)c3ccccc3)cc2)CC1"
measured_value = "> 100 µM (inactive)"

[[record]]
molecule = "SC[C@@H]1COC[C@H](CS)S1"
measured_value = "> 100 µM (inactive)"


What reported GI50 corresponds to NC(=O)CCCC(NCc1c2ccccc2nc2ccccc12)C(=O)O (stereo unspecified) on SK-OV-3?
> 100 µM (inactive)

Follow-up entry: "N#C/C(=C\c1ccccc1O)C(N)=O"
53.1 µM (inactive)

Follow-up entry: "CCOC(=O)/C(C(=O)NC(C)C)=C(/N)N1CCOCC1"
> 100 µM (inactive)

###

Below: a set of entries, each annotated with reported GI50.
Test system: OVCAR-3
PROTOCOL: NCI tumour cell line growth inhibition, 48 h
Active and inactive are the calls of the source. Rule as the data show it: active = GI50 up to about 1.1 µM and inactive = higher.

[[record]]
compound = "N#CC(C(=O)CCCC(=O)Nc1ccc(Cl)cc1Cl)c1ccc(Cl)cc1 (stereo unspecified)"
tgt = "OVCAR-3"
attribute_measured = "GI50"
measured_value = "> 100 µM (inactive)"


Look up GI50 for this compound: "O=C1/C(=C/c2ccccc2)NC(=S)N1CN1CCCCC1"
> 100 µM (inactive)

###

Below: a set of entries, each annotated with reported GI50.
Test system: SK-MEL-28
PROTOCOL: NCI tumour cell line growth inhibition, 48 h
Activity calls are given as the source filed them. No stated cut-off is given here; in the data, active = GI50 up to about 1.1 µM and inactive = higher.

Example compounds with recorded GI50:
[[record]]
compound = "COc1nc2ccc(COc3ccc(C(=O)NC(CCC(=O)O)C(=O)O)cc3)cc2nc1OC (stereo not given)"
attribute_measured = "GI50"
measured_value = "> 10 µM (inactive)"

[[record]]
compound = "CCOC(=O)c1ccc(/N=c2/[nH]c3ccccc3s/c2=N/c2ccc(C(=O)OCC)cc2)cc1"
attribute_measured = "GI50"
measured_value = "> 100 µM (inactive)"

[[record]]
compound = "CN1C(=O)c2ccccc2OC12C=Cc1c(ccc3ccccc13)O2 (stereo not given)"
attribute_measured = "GI50"
measured_value = "14.2 µM (inactive)"

[[record]]
compound = "CSc1nc(C)c2c(n1)SCC2"
attribute_measured = "GI50"
measured_value = "> 10 µM (inactive)"


Look up GI50 for this compound: CC(C)OP(=O)(OC(C)C)C(C(C)C)N(C)/C(F)=N/C(F)(F)F (stereo not given)
> 100 µM (inactive)

Follow-up entry: COCCN(C(C)=O)C1CCC2(SCCS2)c2[nH]c3ccccc3c21 (stereo not given)
> 100 µM (inactive)

###

System: DU-145
PROTOCOL: NCI tumour cell line growth inhibition, 48 h
Activity calls are given as the source filed them. No stated cut-off is given here; in the data, active = GI50 up to about 1.1 µM and inactive = higher.
ATTRIBUTE MEASURED: GI50

Example compounds with recorded GI50:
[[record]]
compound = "O=C(CSc1ncnc2[nH]cnc12)c1ccccc1"
measured_value = "> 100 µM (inactive)"

[[record]]
compound = "[N-]=[N+]=Nc1ccc2c(c1)Sc1ccccc1N2CCCCN1CCN(Cc2ccc(C(=O)c3ccccc3)cc2)CC1"
measured_value = "> 100 µM (inactive)"

[[record]]
compound = "Nc1ccc2c3c1cccc3c(=O)n1c3ccc(Cc4ccc5c(c4)nc4c6ccc(N)c7cccc(c(=O)n54)c76)cc3nc21"
measured_value = "> 100 µM (inactive)"

[[record]]
compound = "C1=C(N2CCOCC2)/C(=C2\\SC(=N/c3ccccc3)/C(=N\\c3ccccc3)N2c2ccccc2)CC1"
measured_value = "> 100 µM (inactive)"

[[record]]
compound = "OC(Cc1ccc2ccccc2n1)(C(F)(F)Cl)C(F)(F)Cl"
measured_value = "> 10 µM (inactive)"

[[record]]
compound = "CCOC(=O)c1cc(C(O)P2(=O)N(CC(C)(C)C)[C@@H]3CCCC[C@H]3N2CC(C)(C)C)cn1C(=O)OC(C)(C)C (some centres undefined)"
measured_value = "16.6 µM (inactive)"

[[record]]
compound = "CN(C)/C=N\\c1cccc2cnccc12"
measured_value = "> 100 µM (inactive)"

[[record]]
compound = "CC(=O)NC(CC(C)C)C(=O)NC(CC(C)C)C(=O)NC(C=O)CCCNC(=N)N (centres undefined)"
measured_value = "> 100 µM (inactive)"


Next item in the queue.
Look up GI50 for this compound: COCCN(C(C)=O)C1CCC2(SCCS2)c2[nH]c3ccccc3c21 (centres undefined)
> 100 µM (inactive)

###

System: U-251
PROTOCOL: NCI tumour cell line growth inhibition, 48 h
Calls of active or inactive are those of the source. No stated cut-off is given here; in the data, active = GI50 up to about 1.1 µM and inactive = higher.
Below: a set of entries, each annotated with reported GI50.

Example compounds with recorded GI50:
[[record]]
compound = "O=[N+]([O-])c1nccn1CC(O)CN1CCCCC1 (stereo not given)"
measured_value = "> 100 µM (inactive)"

[[record]]
compound = "O=C(O)c1cccc(S(=O)(=O)NN2C(=O)CSC2c2c(O)ccc3ccccc23)c1 (stereo not given)"
measured_value = "34.3 µM (inactive)"

[[record]]
compound = "N#Cc1c(Nc2ccccc2)[n+]([O-])c2ccc(Cl)cc2[n+]1[O-]"
measured_value = "3.15 µM (inactive)"

[[record]]
compound = "COc1cc2cc3c4c(cc(OC)c(OC)c4c2cc1OC)CCN3C"
measured_value = "3.58 µM (inactive)"


Next item in the queue.
Look up GI50 for this compound: "O=C1N/C(=N/N=C\c2ccccc2)N/C1=C/c1ccc(Cl)cc1"
22.8 µM (inactive)

###

Tested on: MDA-N
PROTOCOL: NCI tumour cell line growth inhibition, 48 h
Activity calls are given as the source filed them. Cut-off read from the data, not from the text of the source: active = GI50 up to about 1.1 µM and inactive = higher.
Hi! Could you answer with just one of these? Yes = active, No = inactive

Answered cases to consult:
[[record]]
compound = "O=C1/C(=C\\c2ccc(Cl)cc2)N=C(c2ccccc2)N1n1c(=O)cn[nH]c1=S"
answer_label = "No"

[[record]]
compound = "COc1cc([C@@H]2c3cc4c(cc3[C@@H](/N=C/c3ccc(C(=O)O[C@@H](C(=O)O[C@H]5C[C@@]6(O)[C@@H](OC(=O)c7ccccc7)[C@@H]7[C@]8(OC(C)=O)CO[C@@H]8C[C@H](O)[C@@]7(C)C(=O)[C@H](OC(C)=O)C(=C5C)C6(C)C)[C@@H](NC(=O)c5ccccc5)c5ccccc5)cc3)[C@H]3COC(=O)[C@H]23)OCO4)cc(OC)c1O"
answer_label = "Yes"

[[record]]
compound = "C[n+]1c(-c2ccccc2)cc2/c(=C\\c3ccccc3)c3ccccc3n21"
answer_label = "Yes"

[[record]]
compound = "CC(=O)Oc1c(C)cc(-c2cc(C)c(OC(C)=O)c(C)c2)cc1C"
answer_label = "No"


Please state the recorded outcome for this compound: "CCOC(=O)c1cc2c3c(cc(OC)c2[nH]1)N(C(=O)OCC)CC3"
No

Follow-up entry: O=C1Nc2ccccc2C1Cc1ccc([N+](=O)[O-])cc1 (stereo unspecified)
No

Follow-up entry: "O=C(c1cc(Cl)cc(Cl)c1)N(C(=O)N1CCN(c2ccccc2)CC1)c1ccccc1"
No

Follow-up entry: "CC1=C(C(=O)Nc2ccccc2C)C(c2ccc(C3C(C(=O)Nc4ccccc4C)=C(C)NC(C)=C3C(=O)Nc3ccccc3C)cc2)C(C(=O)Nc2ccccc2C)=C(C)N1"
No

Follow-up entry: "NNC(=O)CSc1nc2ccc(I)cc2c(=O)n1Cc1ccccc1"
No
